# TARGET_OR_SYSTEM: T1, APC8191-AA
# T1 chain: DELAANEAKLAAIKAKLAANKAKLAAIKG
# EXPERIMENTAL_PROTOCOL: two-hybrid library CCmax;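 further: natural log of median RNA to DNA barcode read ratio; higher means stronger binding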
# REPORTED_CONDITIONS: mean of both orientations
Field: interaction score. Provide a value for each of the binders that follow.
Keep it simple and answer with nothing but the number.

Entry DELAAEEAKLAAIKAELAAIEAELAANEG [APC6108-AA] ; interaction score = -1.6

Entry DEAAALEAEAAALEAKAAALKAKLAAEKG [APC2237-AA] ; interaction score = -1.41

Entry DENAALKAKIAALEAKNAALEAKIAALEG [4H1845-AA] ; interaction score = -1.67

Entry DKLAAEKAELAAIEAKLAANKAKLAANKG [APC7099-AA] ; interaction score = -1.62

Entry DEAAALEAENAALEAELAAIEAKNAALKG [APC2405-AA] ; interaction score = 0.786

Entry DKAAALKAELAAEEAENAALEAKNAALKG [APC3645-AA] ; interaction score = -1.7

Entry DKIAALEAKNAALEAENAALKAEIAALKG [4H2458-AA] ; interaction score = -2.11
